These entries and their values trace back to patent US20230257396A1.

Biological target: kinases (Homo sapiens, UniProt P36888, R834Q)
Construct: purchased Eurofins/DiscoveRx; host or cells: E. coli BL21-derived host (T7 phage display) for most kinases; HEK-293 for the rest
Assay: KINOMEscan kinase binding assay (Eurofins/DiscoveRx), % Ctrl
Conditions: 1 μM; FLT3(R834Q)
readout-type: % Ctrl, FLT3(R834Q) (% Ctrl)
The response must be a number in % Ctrl with no trailing unit.

Worked examples, 3 compounds total:
compound | % Ctrl, FLT3(R834Q) (% Ctrl)
Cc1cc2c([nH]1)/C=C1\C(=O)Nc3ccc(cc31)-c1ccnn1CCNCCNC2=O [Ex. 43] | 85
Cc1cc2c([nH]1)/C=C1\C(=O)Nc3cc(Cl)c(cc31)OCCO[C@@H](C(=O)N(C)C)CN(C)C2=O [Ex. 137] | 65
Cc1cc2c([nH]1)/C=C1\C(=O)Nc3ccc(cc31)-c1ccnn1CCOCCN(C)C2=O [Ex. 41] | 15

Lab note: next compound to report on.
Find the recorded % Ctrl, FLT3(R834Q) belonging to Cc1cc2c([nH]1)/C=C1\C(=O)Nc3cc(Cl)c(cc31)OCCO[C@@H](C(=O)N[C@@H]1CCNC1)CN(C)C2=O [Ex. 136] and report it. 50

====

Target: kinases (Homo sapiens)
Construct: purchased Eurofins/DiscoveRx; host or cells: E. coli BL21-derived host (T7 phage display) for most kinases; HEK-293 for the rest
Assay: KINOMEscan kinase binding assay (Eurofins/DiscoveRx), % Ctrl
Conditions: target KIT-autoinhibited; 1 μM
Procedure: Kinase binding assays were performed at Eurofins/DiscoveRx using the general KINOMEscan Protocol (Fabian, M. A. et al., “A small molecule-kinase interaction map for clinical kinase inhibitors,” Nat. Biotechnol. 2005, 23(3):329-36). For most assays, kinase-tagged T7 phage strains were prepared in an E. coli host derived from the BL21 strain. […] The kinase concentration in the eluates was measured by qPCR. […]
In this section, each of the compounds is paired with its reported % Ctrl, KIT-autoinhibited.
Quick note: give the figure in % Ctrl, leave out the unit.

Consider the reported % Ctrl, KIT-autoinhibited for these compounds:
compound | assay-system | quantitative-result
Cc1nn(C)c2c1-c1ccc3c(c1)/C(=C/c1[nH]ccc1C(=O)N(C)CCCO2)C(=O)N3 [Ex. 150] | kinases (Homo sapiens) | 100
CN1CCSCCOc2cc3c(cc2Cl)NC(=O)/C3=C\c2[nH]ccc2C1=O [Ex. 153] | kinases (Homo sapiens) | 14
CN1CCOCCOc2cc3c(cc2Cl)NC(=O)/C3=C\c2[nH]ccc2C1=O [Ex. 143] | kinases (Homo sapiens) | 40
Cc1cc2c([nH]1)/C=C1\C(=O)Nc3cnc(cc31)-c1cn[nH]c1CNCCN(C)C2=O [Ex. 55] | kinases (Homo sapiens) | 39

Provide value of % Ctrl, KIT-autoinhibited for this record tested with kinases (Homo sapiens): Cc1cc2c([nH]1)/C=C1\C(=O)Nc3cc(Cl)c(cc31)OCCO[C@@H](C(=O)N1CCN(C)CC1)CN(C)C2=O [Ex. 138] 96

Enter reported % Ctrl, KIT-autoinhibited observed with kinases (Homo sapiens) for Cc1cc2c([nH]1)/C=C1\C(=O)Nc3ccc(cc31)-c1c(noc1C)CNCCN(C)C2=O [Ex. 139] 81

Request: % Ctrl, KIT-autoinhibited, test system kinases (Homo sapiens), entry Cc1cc2c([nH]1)/C=C1\C(=O)Nc3ccc(cc31)-c1c(C)nn(C)c1COCCN(C)C2=O [Ex. 146] 80

====

Target: kinases (Homo sapiens, UniProt P09619)
Construct: purchased Eurofins/DiscoveRx; host or cells: E. coli BL21-derived host (T7 phage display) for most kinases; HEK-293 for the rest
Sequence (P09619 33-1106): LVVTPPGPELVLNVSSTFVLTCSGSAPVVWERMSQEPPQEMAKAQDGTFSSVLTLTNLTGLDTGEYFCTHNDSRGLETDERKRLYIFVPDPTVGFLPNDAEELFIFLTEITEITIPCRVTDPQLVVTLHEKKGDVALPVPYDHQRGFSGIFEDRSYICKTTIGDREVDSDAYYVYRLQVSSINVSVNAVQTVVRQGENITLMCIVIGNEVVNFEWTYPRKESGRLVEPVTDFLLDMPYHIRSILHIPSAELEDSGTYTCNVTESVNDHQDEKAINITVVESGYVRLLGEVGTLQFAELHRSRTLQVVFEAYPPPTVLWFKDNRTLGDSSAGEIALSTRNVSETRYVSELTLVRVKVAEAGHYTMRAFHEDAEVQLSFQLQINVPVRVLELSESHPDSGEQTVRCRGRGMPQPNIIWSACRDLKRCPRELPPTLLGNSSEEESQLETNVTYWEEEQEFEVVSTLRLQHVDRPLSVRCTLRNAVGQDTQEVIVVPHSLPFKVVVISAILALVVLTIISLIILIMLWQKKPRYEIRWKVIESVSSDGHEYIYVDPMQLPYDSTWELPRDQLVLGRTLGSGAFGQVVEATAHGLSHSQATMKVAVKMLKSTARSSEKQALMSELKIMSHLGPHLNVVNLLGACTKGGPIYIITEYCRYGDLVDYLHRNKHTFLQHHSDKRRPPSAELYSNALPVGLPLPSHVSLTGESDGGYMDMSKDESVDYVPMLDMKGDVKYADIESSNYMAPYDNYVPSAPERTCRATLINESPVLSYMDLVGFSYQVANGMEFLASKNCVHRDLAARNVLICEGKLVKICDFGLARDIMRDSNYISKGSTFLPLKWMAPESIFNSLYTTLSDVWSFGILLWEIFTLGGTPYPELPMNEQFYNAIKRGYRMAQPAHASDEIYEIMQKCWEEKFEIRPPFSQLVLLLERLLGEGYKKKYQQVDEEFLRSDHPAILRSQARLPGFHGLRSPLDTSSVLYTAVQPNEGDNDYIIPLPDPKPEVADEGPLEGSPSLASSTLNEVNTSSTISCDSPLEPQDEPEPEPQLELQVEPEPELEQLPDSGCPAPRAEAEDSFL
Assay: KINOMEscan kinase binding assay (Eurofins/DiscoveRx), % Ctrl
Conditions: 1 μM; target PDGFRB
// reported % Ctrl, PDGFRB per item
Numeric answer only, unit % Ctrl assumed.

Example cases with answers are listed next.
smiles-string | quantitative-result
Cc1cc2c([nH]1)/C=C1\C(=O)Nc3cc(Cl)c(cc31)SCCOCCN(C)C2=O | 0.9
Cc1cc2c([nH]1)/C=C1\C(=O)Nc3cnc(cc31)-c1cnn(C)c1CN(C)CCN(C)C2=O | 1.9

Which value of % Ctrl, PDGFRB has been reported for CN1CCOc2cc3c(cc2Cl)NC(=O)/C3=C\c2[nH]ccc2C(=O)N(C)CC1 in the records? 0.9

Quick one: % Ctrl, PDGFRB for Cc1cc2c([nH]1)/C=C1\C(=O)Nc3ccc(cc31)-c1cnn(C)c1OCCCN(C)C2=O ? 16

Endpoint output: % Ctrl, PDGFRB of Cc1cc2c([nH]1)/C=C1\C(=O)Nc3ccc(cc31)-c1c(noc1C(C)C)COCCN(C)C2=O . Value? 98

====

Target: kinases (Homo sapiens, UniProt P10721, D816V)
Construct: purchased Eurofins/DiscoveRx; host or cells: E. coli BL21-derived host (T7 phage display) for most kinases; HEK-293 for the rest
Sequence (P10721 26-976 D816V): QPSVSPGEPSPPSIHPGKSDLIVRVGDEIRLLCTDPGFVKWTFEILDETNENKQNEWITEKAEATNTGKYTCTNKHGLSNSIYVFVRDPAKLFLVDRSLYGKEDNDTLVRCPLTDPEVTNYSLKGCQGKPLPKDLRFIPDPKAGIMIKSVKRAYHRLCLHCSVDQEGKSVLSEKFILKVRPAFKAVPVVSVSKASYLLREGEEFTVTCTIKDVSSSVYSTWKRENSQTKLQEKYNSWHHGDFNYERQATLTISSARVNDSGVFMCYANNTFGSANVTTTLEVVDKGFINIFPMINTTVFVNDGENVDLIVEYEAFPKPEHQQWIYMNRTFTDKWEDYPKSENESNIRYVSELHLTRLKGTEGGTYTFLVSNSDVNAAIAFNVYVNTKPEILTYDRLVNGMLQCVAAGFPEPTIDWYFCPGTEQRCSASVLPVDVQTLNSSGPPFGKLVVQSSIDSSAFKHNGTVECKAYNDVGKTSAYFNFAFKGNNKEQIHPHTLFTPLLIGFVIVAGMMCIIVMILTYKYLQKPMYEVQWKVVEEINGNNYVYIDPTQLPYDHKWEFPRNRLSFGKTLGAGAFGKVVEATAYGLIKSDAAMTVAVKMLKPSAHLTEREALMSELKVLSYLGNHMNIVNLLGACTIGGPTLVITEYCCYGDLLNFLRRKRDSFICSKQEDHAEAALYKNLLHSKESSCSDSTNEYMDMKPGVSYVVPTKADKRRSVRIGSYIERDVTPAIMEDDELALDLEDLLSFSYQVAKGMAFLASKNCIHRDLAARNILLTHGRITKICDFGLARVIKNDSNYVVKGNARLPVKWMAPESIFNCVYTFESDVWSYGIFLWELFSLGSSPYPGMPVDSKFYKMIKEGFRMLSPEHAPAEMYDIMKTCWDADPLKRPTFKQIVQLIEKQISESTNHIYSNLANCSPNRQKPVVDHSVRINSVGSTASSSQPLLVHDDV
Test: KINOMEscan kinase binding assay (Eurofins/DiscoveRx), % Ctrl
Conditions: 1 μM; target KIT(D816V)
readout-type: % Ctrl, KIT(D816V)

Answered examples (4):
smiles-string | readout-type | result
Cc1cc2c([nH]1)/C=C1\C(=O)Nc3ccc(cc31)-c1c(noc1C(C)C)COCCN(C)C2=O | % Ctrl, KIT(D816V) | 100 % Ctrl
Cc1cc2c([nH]1)/C=C1\C(=O)Nc3cnc(cc31)-c1cnn(C)c1CN(C)CCN(C)C2=O | % Ctrl, KIT(D816V) | 0.8 % Ctrl
Cc1cc2c([nH]1)/C=C1\C(=O)Nc3ccc(cc31)-c1cnn(C)c1OCCCN(C)C2=O | % Ctrl, KIT(D816V) | 2.8 % Ctrl
Cc1cc2c([nH]1)/C=C1\C(=O)Nc3cc(Cl)c(cc31)SCCOCCN(C)C2=O | % Ctrl, KIT(D816V) | 1.6 % Ctrl

// below: % Ctrl, KIT(D816V) requested for another compound
// fetch kinases (Homo sapiens, UniProt P10721, D816V) % Ctrl, KIT(D816V) for CN1CCOc2cc3c(cc2Cl)NC(=O)/C3=C\c2[nH]ccc2C(=O)N(C)CC1 3.3 % Ctrl

====

Molecular target: kinases (Homo sapiens, UniProt P17948)
Construct: purchased Eurofins/DiscoveRx; host or cells: E. coli BL21-derived host (T7 phage display) for most kinases; HEK-293 for the rest
Sequence (P17948 27-1338): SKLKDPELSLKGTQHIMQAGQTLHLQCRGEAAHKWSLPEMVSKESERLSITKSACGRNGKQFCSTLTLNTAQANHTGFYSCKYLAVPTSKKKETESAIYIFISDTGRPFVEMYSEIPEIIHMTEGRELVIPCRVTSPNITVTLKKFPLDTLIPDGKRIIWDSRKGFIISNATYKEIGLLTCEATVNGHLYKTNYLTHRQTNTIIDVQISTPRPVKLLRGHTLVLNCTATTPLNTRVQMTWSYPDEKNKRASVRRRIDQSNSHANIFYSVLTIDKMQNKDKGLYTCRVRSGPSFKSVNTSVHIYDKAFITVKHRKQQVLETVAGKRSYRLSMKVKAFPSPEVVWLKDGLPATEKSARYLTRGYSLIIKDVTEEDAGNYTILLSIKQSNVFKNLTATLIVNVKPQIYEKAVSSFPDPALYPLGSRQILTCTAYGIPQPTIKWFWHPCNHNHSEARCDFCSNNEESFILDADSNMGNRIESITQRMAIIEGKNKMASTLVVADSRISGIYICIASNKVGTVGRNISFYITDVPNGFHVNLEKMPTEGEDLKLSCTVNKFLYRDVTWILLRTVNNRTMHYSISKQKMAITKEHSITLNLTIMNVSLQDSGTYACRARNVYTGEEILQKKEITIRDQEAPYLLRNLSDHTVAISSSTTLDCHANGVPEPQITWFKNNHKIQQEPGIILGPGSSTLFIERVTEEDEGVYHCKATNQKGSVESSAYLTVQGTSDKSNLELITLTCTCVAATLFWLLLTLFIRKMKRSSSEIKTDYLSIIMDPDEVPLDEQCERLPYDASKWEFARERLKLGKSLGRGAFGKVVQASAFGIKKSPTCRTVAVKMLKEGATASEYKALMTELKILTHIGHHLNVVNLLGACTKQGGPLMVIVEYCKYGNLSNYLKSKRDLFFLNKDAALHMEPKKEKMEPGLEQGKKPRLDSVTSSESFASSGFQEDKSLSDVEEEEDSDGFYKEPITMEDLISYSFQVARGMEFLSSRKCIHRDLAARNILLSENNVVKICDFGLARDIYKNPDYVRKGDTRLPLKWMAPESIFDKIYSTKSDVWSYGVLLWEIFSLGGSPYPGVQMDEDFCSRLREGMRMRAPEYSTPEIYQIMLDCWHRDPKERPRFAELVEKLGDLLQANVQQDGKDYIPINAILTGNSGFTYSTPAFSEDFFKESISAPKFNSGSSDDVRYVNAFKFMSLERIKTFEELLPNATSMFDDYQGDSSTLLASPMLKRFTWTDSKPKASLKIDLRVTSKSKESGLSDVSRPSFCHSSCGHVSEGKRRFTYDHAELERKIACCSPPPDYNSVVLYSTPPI
Test: KINOMEscan kinase binding assay (Eurofins/DiscoveRx), % Ctrl
Conditions: 1 μM; FLT1
readout-type: % Ctrl, FLT1

Entry Cc1cc2c([nH]1)/C=C1\C(=O)Nc3cc(Cl)c(cc31)OCCO[C@@H](C(=O)NC1CNC1)CN(C)C2=O [Ex. 133] : reported % Ctrl, FLT1 = ? 89 % Ctrl

====

Target: kinases (Homo sapiens, UniProt P36888, N841I)
Construct: purchased Eurofins/DiscoveRx; host or cells: E. coli BL21-derived host (T7 phage display) for most kinases; HEK-293 for the rest
Sequence (P36888 27-993 N841I): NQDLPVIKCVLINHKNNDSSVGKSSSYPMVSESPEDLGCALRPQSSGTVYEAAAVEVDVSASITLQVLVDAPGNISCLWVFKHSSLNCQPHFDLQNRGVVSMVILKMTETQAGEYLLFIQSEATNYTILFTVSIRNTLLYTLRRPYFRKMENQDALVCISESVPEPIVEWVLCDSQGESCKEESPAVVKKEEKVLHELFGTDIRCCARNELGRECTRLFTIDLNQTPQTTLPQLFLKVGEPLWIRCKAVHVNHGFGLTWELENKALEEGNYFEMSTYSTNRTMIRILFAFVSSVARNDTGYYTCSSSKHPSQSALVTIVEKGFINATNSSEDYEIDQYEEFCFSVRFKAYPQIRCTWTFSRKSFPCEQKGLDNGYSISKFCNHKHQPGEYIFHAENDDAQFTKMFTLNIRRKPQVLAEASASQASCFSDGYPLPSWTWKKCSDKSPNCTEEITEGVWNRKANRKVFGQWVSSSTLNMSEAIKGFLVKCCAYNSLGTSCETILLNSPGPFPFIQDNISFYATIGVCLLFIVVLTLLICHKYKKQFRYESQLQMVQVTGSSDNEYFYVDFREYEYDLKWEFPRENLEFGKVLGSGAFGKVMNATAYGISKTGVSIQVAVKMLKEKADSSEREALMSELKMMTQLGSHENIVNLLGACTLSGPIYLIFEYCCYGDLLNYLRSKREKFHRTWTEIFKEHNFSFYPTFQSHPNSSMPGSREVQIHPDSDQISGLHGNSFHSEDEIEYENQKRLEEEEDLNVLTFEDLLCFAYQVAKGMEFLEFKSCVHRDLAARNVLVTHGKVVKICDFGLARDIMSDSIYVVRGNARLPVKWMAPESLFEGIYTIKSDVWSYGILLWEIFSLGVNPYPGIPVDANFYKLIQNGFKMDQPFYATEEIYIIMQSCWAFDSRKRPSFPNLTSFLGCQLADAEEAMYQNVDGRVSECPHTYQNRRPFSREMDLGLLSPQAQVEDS
Test: KINOMEscan kinase binding assay (Eurofins/DiscoveRx), % Ctrl
Conditions: 1 μM; target FLT3(N841I)
readout-type: % Ctrl, FLT3(N841I) (% Ctrl)
Use % Ctrl as the unit, but write only the number.

Example entries and their recorded answers appear below.
smiles-string | assay-system | scale-unit | % Ctrl, FLT3(N841I)
CN1CCOc2cc3c(cc2Cl)NC(=O)/C3=C\c2[nH]ccc2C(=O)N(C)CC1 | kinases (Homo sapiens, UniProt P36888, N841I) | % Ctrl | 0
Cc1cc2c([nH]1)/C=C1\C(=O)Nc3ccc(cc31)-c1c(noc1C(C)C)COCCN(C)C2=O | kinases (Homo sapiens, UniProt P36888, N841I) | % Ctrl | 39
Cc1cc2c([nH]1)/C=C1\C(=O)Nc3cnc(cc31)-c1cnn(C)c1CN(C)CCN(C)C2=O | kinases (Homo sapiens, UniProt P36888, N841I) | % Ctrl | 0

For Cc1cc2c([nH]1)/C=C1\C(=O)Nc3cc(Cl)c(cc31)SCCOCCN(C)C2=O , what is its reported % Ctrl, FLT3(N841I)? 0

What does the record list as % Ctrl, FLT3(N841I) for Cc1cc2c([nH]1)/C=C1\C(=O)Nc3ccc(cc31)-c1cnn(C)c1OCCCN(C)C2=O ? 0
